Data provenance: patent US20240067748A1

measured_target: T1, monkey Trop2 protein (Sino Biological, #90893-C08H) (monkey, UniProt A0A2K5UE71 27-274)
T1 construct: bought protein; also called monkey Trop2 protein antigen (His tag)
T1 sequence: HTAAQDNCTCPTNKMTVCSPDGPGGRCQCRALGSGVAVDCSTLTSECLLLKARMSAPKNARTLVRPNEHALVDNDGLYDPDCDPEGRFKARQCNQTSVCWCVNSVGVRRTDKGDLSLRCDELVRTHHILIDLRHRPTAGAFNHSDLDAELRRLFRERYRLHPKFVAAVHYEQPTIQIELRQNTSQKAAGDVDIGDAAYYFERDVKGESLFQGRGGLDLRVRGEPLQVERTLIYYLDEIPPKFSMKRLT
assay_comment: BLI, Octet RED96; ratio against KD for human Trop2 protein
property_label: KD (monkey)/KD (human)
Just the number.

Problem: Give the reported KD (monkey)/KD (human) for this binder. PR001158 (antibody, human IgG1, kappa, V domains shown, fully human IgG1/kappa; also called antibody No. (20)) VH: QVQLVESGGGVVQPGRSLRLSCVASGFTFSHYGMHWVRQAPGKGLEWVAVIWYDGIKKYYVESVKGRFTISRDNSKNTLNLQMNRLRAEDTAVYYCARDGGFGESNYYGLDVWGQGTTVTVSS VL: DIQLTQSPSFLSASVGDRVTITCRASQGISSYLGWYQQKPGKAPKLLIYIASTLQSGVPSRFSGSGSGTEFTLTISSLQPEDFATYYCQQLNSYPYTFGQGTKLEIKR
Result: 4.56

Problem: Give the reported KD (monkey)/KD (human) for this binder. PR001153 (antibody, human IgG1, kappa, V domains shown, fully human IgG1/kappa; also called antibody No. (16)) VH: QVQLQESGPGLVKPSGTLSLTCAVSGGSISSSNWWSWVRQPPGKGLEWIGEIYHDGSTDYNPSLKSRVIISVDKSKNQFSLKVRSVTAADTAVYYCARDNWGFDYWGQGTLVTVSS VL: EIVLTQFPGTLSLSPGERATLSCRSSQSVSSSYLAWYQQKPGQAPRLLISGASSRATGIPDRFSGSGSGTDFTLTISRLEPEDFAVYYCQQYGSSPRTFGQGTKVEIKR
Result: 5.61

Problem: Give the reported KD (monkey)/KD (human) for this binder. PR001171 (antibody, human IgG1, kappa, V domains shown, fully human IgG1/kappa; also called antibody No. (30)) VH: QVQLVESGGGVVQPGRSLRLSCAASGFTFSHYGMHWVRQAPGKGLEWVAVIWYDGIKKNYVESVKGRFTISRDNSKNTLNLQMNRLRAEDTAVYYCARDGGFGESNYYGLDVWGQGTTVTVSS VL: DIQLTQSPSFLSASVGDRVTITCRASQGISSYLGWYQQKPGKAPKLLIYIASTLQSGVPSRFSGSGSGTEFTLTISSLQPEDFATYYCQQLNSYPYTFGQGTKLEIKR
Result: 6.02
